Tested on: Staphylococcus aureus
Experiment: Antibacterial activity against methicillin-resistant Staphylococcus aureus 86 assessed as bacterial growth inhibition in presence of 50 ug/ml calcium ions by CLSI protocol based broth microdilution method
Format: functional
attribute measured: MIC

chemical smiles | meas value
CCCCCCCCCC(=O)N[C@@H](Cc1c[nH]c2ccccc12)C(=O)N[C@@H](CC(N)=O)C(=O)N[C@@H](CC(=O)O)C(=O)N[C@@H]1C(=O)NCC(=O)N[C@@H](CCCN)C(=O)N[C@@H](CC(=O)O)C(=O)N[C@@H](C)C(=O)N[C@@H](CC(=O)O)C(=O)NCC(=O)N[C@H](CO)C(=O)N[C@@H]([C@@H](C)CC(=O)O)C(=O)N[C@@H](CC(=O)c2ccccc2N)C(=O)O[C@@H]1C | ≥ 64 µg/mL

Continue with the compound presented below.
Request: Please report the recorded MIC for CCCCCCCCCC(=O)N[C@@H](Cc1c[nH]c2ccccc12)C(=O)N[C@@H](CC(N)=O)C(=O)N[C@@H](CC(=O)O)C(=O)N[C@@H]1C(=O)NCC(=O)NCC(=O)N[C@@H](CC(=O)O)C(=O)N[C@H](C)C(=O)N[C@@H](CC(=O)O)C(=O)NCC(=O)N[C@H](CO)C(=O)N[C@@H]([C@@H](C)CC(=O)O)C(=O)N[C@@H](CC(=O)c2ccccc2N)C(=O)O[C@@H]1C .
Response: ≥ 32 µg/mL

====

Test system: Enterococcus
Experiment: Antibacterial activity against Enterococcus 60 assessed as bacterial growth inhibition in presence of 50 ug/ml calcium ions by CLSI protocol based broth microdilution method
Format: functional
Reported values of MIC for individual entries

chemical smiles | meas value
CCCCCCCCCC(=O)N[C@@H](Cc1c[nH]c2ccccc12)C(=O)N[C@@H](CC(N)=O)C(=O)N[C@@H](CC(=O)O)C(=O)N[C@@H]1C(=O)NCC(=O)N[C@@H](CCCN)C(=O)N[C@@H](CC(=O)O)C(=O)N[C@H](C)C(=O)N[C@@H]([C@H](C)CC(=O)O)C(=O)NCC(=O)N[C@H](CO)C(=O)N[C@@H](CC(=O)O)C(=O)N[C@@H](CC(=O)c2ccccc2N)C(=O)O[C@@H]1C | ≥ 32 µg/mL
CCCCCCCCCC(=O)N[C@@H](Cc1c[nH]c2ccccc12)C(=O)N[C@@H](CC(N)=O)C(=O)N[C@@H](CC(=O)O)C(=O)N[C@@H]1C(=O)NCC(=O)N[C@@H](Cc2ccc(O)cc2)C(=O)N[C@@H](CC(=O)O)C(=O)N[C@H](C)C(=O)N[C@@H](CC(=O)O)C(=O)NCC(=O)N[C@H](CO)C(=O)N[C@@H]([C@@H](C)CC(=O)O)C(=O)N[C@@H](CC(=O)c2ccccc2N)C(=O)O[C@@H]1C | 16 µg/mL

# input for lookup
Request: Tell me the measured MIC of CCCCCCCCCC(=O)N[C@@H](Cc1c[nH]c2ccccc12)C(=O)N[C@@H](CC(N)=O)C(=O)N[C@@H](CC(=O)O)C(=O)N[C@@H]1C(=O)NCC(=O)N[C@@H](Cc2c[nH]c3ccccc23)C(=O)N[C@@H](CC(=O)O)C(=O)N[C@H](C)C(=O)N[C@@H](CC(=O)O)C(=O)NCC(=O)N[C@H](CO)C(=O)N[C@@H]([C@@H](C)CC(=O)O)C(=O)N[C@@H](CC(=O)c2ccccc2N)C(=O)O[C@@H]1C , please.
Response: ≥ 32 µg/mL
